System Tested: huCTLA4 (Homo sapiens, UniProt P16410)
Sequence (P16410 36-223): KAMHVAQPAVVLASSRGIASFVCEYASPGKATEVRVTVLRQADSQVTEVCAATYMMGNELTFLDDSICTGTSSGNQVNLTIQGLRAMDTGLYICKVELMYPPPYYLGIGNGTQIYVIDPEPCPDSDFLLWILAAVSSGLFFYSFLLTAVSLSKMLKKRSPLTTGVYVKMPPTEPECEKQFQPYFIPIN
Experiment Description: Flow binding to CHO cells stably expressing CTLA4
Design: huCTLA4 and huPD-L1, full-length mammalian surface expression constructs were generated; expressed in transfected cells; host or cells: CHO cells, lentiviral transduction, sorted to >98% purity
Condition Details: Table E23; CD80 IgV-Fc (inert) at 33.3 nM; CHO cells stably expressing CTLA4
Reported CTLA4 MFI at 33.3 nM by item:

- Molecule: "H18R/A26P/E35D/D46N/M47V/V68M/A71G/D90P (protein, UniProt P33681 35-288, looked up, variant H18R A26P E35D D46N M47V V68M A71G D90P, Fc fusion) T-lymphocyte activation …: VIHVTKEVKEVATLSCGRNVSVEELPQTRIYWQKDKKMVLTMMSGNVNIWPEYKNRTIFDITNNLSIMILGLRPSDEGTYECVVLKYEKPAFKREHLAEVTLSVKADFPTPSISDFEIPTSNIRRIICSTSGGFPEPHLSWLENGEELNAINTTVSQDPETELYAVSSKLDFNMTTNHSFMCLIKYGHLRVNQTFNWNTTKQEHFPDNLLPSWAITLISVNGIFVICCLTYCFAPRCRERRRNERLRRESVRPV"
  CTLA4 MFI at 33.3 nM: 17327
- Molecule: "H18V/A26G/E35D/M47V/V68M/A71G/D90G (protein, UniProt P33681 35-288, looked up, variant H18V A26G E35D M47V V68M A71G D90G) T-lymphocyte activation …: VIHVTKEVKEVATLSCGVNVSVEELGQTRIYWQKDKKMVLTMMSGDVNIWPEYKNRTIFDITNNLSIMILGLRPSDEGTYECVVLKYEKGAFKREHLAEVTLSVKADFPTPSISDFEIPTSNIRRIICSTSGGFPEPHLSWLENGEELNAINTTVSQDPETELYAVSSKLDFNMTTNHSFMCLIKYGHLRVNQTFNWNTTKQEHFPDNLLPSWAITLISVNGIFVICCLTYCFAPRCRERRRNERLRRESVRPV"
  CTLA4 MFI at 33.3 nM: 25398
- Molecule: "H18V/A26P/E35D/M47V/V68L/A71G (protein, UniProt P33681 35-288, looked up, variant H18V A26P E35D M47V V68L A71G) T-lymphocyte activation …: VIHVTKEVKEVATLSCGVNVSVEELPQTRIYWQKDKKMVLTMMSGDVNIWPEYKNRTIFDITNNLSILILGLRPSDEGTYECVVLKYEKDAFKREHLAEVTLSVKADFPTPSISDFEIPTSNIRRIICSTSGGFPEPHLSWLENGEELNAINTTVSQDPETELYAVSSKLDFNMTTNHSFMCLIKYGHLRVNQTFNWNTTKQEHFPDNLLPSWAITLISVNGIFVICCLTYCFAPRCRERRRNERLRRESVRPV"
  CTLA4 MFI at 33.3 nM: 13669

These data points were gathered from patent US20220177587A1.
